Assay: Cytotoxicity test (MTT) on 293T cells
Conditions: human, 293T human kidney epithelial cells
For each record, write down the corresponding CC50 at 24 h.
Kindly answer with a numeric value in µM, unit omitted.

Exercise: Return reported CC50 at 24 h; argument: COc1cccc(/C=N/NC(=O)c2ccc(N3N=C(c4ccccc4F)CC3c3ccc4ccccc4c3)cc2)c1 (stereo not drawn) [Compound H9]
Solution: 83.4

Exercise: Return reported CC50 at 24 h; argument: COc1ccc(/C=N/NC(=O)c2ccc(N3N=C(c4cccc(Cl)c4)CC3c3ccc4ccccc4c3)cc2)cc1 (stereo not drawn) [Compound H29]
Solution: 94.4

Exercise: Return reported CC50 at 24 h; argument: COc1cccc(/C=N/NC(=O)c2ccc(N3N=C(c4cccc(Cl)c4)CC3c3ccc4ccccc4c3)cc2)c1 (stereo not drawn) [Compound H13]
Solution: 93.4

Exercise: Return reported CC50 at 24 h; argument: COc1ccc(/C=N/NC(=O)c2ccc(N3N=C(c4cccc(F)c4)CC3c3ccc4ccccc4c3)cc2)cc1 (stereo not drawn) [Compound H26]
Solution: 94.3

Exercise: Return reported CC50 at 24 h; argument: COc1ccc(/C=N/NC(=O)c2ccc(N3N=C(c4ccccc4F)CC3c3ccc4ccccc4c3)cc2)cc1 (stereo not drawn) [Compound H25]
Solution: 85.6

Exercise: Return reported CC50 at 24 h; argument: COc1cccc(/C=N/NC(=O)c2ccc(N3N=C(c4cccc(F)c4)CC3c3ccc4ccccc4c3)cc2)c1 (stereo not drawn) [Compound H10]
Solution: 95.8

Exercise: Return reported CC50 at 24 h; argument: CCOc1ccc(C2=NN(c3ccc(C(=O)N/N=C/c4cccc(OC)c4)cc3)C(c3ccc4ccccc4c3)C2)cc1 (stereo not drawn) [Compound H8]
Solution: 79.7

Exercise: Return reported CC50 at 24 h; argument: COc1ccc(/C=N/NC(=O)c2ccc(N3N=C(c4ccc(C)cc4)CC3c3ccc4ccccc4c3)cc2)cc1 (stereo not drawn) [Compound H20]
Solution: 89.9

Exercise: Return reported CC50 at 24 h; argument: COc1ccc(/C=N/NC(=O)c2ccc(N3N=C(c4cc(F)cc(F)c4)CC3c3ccc4ccccc4c3)cc2)cc1 (stereo not drawn) [Compound H28]
Solution: 82.2

Exercise: Return reported CC50 at 24 h; argument: CCOc1ccc(C2=NN(c3ccc(C(=O)N/N=C/c4ccc(OC)cc4)cc3)C(c3ccc4ccccc4c3)C2)cc1 (stereo not drawn) [Compound H24]
Solution: 81.3

Exercise: Return reported CC50 at 24 h; argument: COc1cccc(/C=N/NC(=O)c2ccc(N3N=C(c4cc(OC)c(OC)c(OC)c4)CC3c3ccc4ccccc4c3)cc2)c1 (stereo not drawn) [Compound H7]
Solution: 92.9

Exercise: Return reported CC50 at 24 h; argument: COc1ccc(/C=N/NC(=O)c2ccc(N3N=C(c4ccc(Cl)c(Cl)c4)CC3c3ccc4ccccc4c3)cc2)cc1 (stereo not drawn) [Compound H31]
Solution: 84.8

Exercise: Return reported CC50 at 24 h; argument: COc1cccc(/C=N/NC(=O)c2ccc(N3N=C(c4ccc(Br)cc4)CC3c3ccc4ccccc4c3)cc2)c1 (stereo not drawn) [Compound H16]
Solution: 81.9

Exercise: Return reported CC50 at 24 h; argument: COc1ccc(/C=N/NC(=O)c2ccc(N3N=C(c4ccc(Cl)cc4)CC3c3ccc4ccccc4c3)cc2)cc1 (stereo not drawn) [Compound H30]
Solution: 88.5

Exercise: Return reported CC50 at 24 h; argument: COc1cccc(/C=N/NC(=O)c2ccc(N3N=C(c4ccc(F)cc4)CC3c3ccc4ccccc4c3)cc2)c1 (stereo not drawn) [Compound H11]
Solution: 86.5

Exercise: Return reported CC50 at 24 h; argument: COc1ccc(/C=N/NC(=O)c2ccc(N3N=C(c4cc(OC)c(OC)c(OC)c4)CC3c3ccc4ccccc4c3)cc2)cc1 (stereo not drawn) [Compound H23]
Solution: 85.8

Exercise: Return reported CC50 at 24 h; argument: COc1ccc(/C=N/NC(=O)c2ccc(N3N=C(c4ccc(F)cc4)CC3c3ccc4ccccc4c3)cc2)cc1 (stereo not drawn) [Compound H27]
Solution: 89.4

Exercise: Return reported CC50 at 24 h; argument: COc1cccc(/C=N/NC(=O)c2ccc(N3N=C(c4ccc(Cl)cc4)CC3c3ccc4ccccc4c3)cc2)c1 (stereo not drawn) [Compound H14]
Solution: 90.1

Exercise: Return reported CC50 at 24 h; argument: COc1cccc(/C=N/NC(=O)c2ccc(N3N=C(c4cc(F)cc(F)c4)CC3c3ccc4ccccc4c3)cc2)c1 (stereo not drawn) [Compound H12]
Solution: 80.2

Exercise: Return reported CC50 at 24 h; argument: COc1ccc(/C=N/NC(=O)c2ccc(N3N=C(c4ccc(Br)cc4)CC3c3ccc4ccccc4c3)cc2)cc1 (stereo not drawn) [Compound H32]
Solution: 83.6

Exercise: Return reported CC50 at 24 h; argument: COc1cccc(/C=N/NC(=O)c2ccc(N3N=C(c4ccc(Cl)c(Cl)c4)CC3c3ccc4ccccc4c3)cc2)c1 (stereo not drawn) [Compound H15]
Solution: 88.2
